Organism: Homo sapiens
Assay: Inhibition of Cdk1 at 10 uM
Set-up: scale not given: the % may be the effect or the level left

| compoundStructure | Activity |
| --- | --- |
| O=C(Nc1ccc(Cl)cc1)c1ccnn1CCc1ccncc1 | > 30% |
| O=C(Nc1ccc(OCc2ccccc2)cc1)c1ccnn1CCc1ccncc1 | > 30% |
| O=C(Nc1ccc(OC(F)(F)F)cc1)c1nc2ccccc2n1CCc1ccncc1 | > 30% |
| O=C(Nc1ccc(OC(F)(F)F)cc1)c1cc2ccccc2n1CCc1ccncc1 | > 30% |
| O=C(Nc1ccc(Cl)cc1)c1ccnn1CCc1cnoc1 | > 30% |
| O=C(Nc1ccc(C(F)(F)F)c(Cl)c1)c1ccnn1CCc1ccncc1 | > 30% |

---

We begin with a simple list: items and their reported Activity.
Species on record: Homo sapiens
Assay: Inhibition of Cdk1 at 10 uM
Set-up: scale not given: the % may be the effect or the level left

| compoundStructure | Activity |
| --- | --- |
| COc1ccc(NC(=O)c2ccnn2CCc2ccncc2)cc1OC | > 30% |
| O=C(Nc1ccc(C(F)(F)F)c(Cl)c1)c1nccn1CCc1ccncc1 | > 30% |
| O=C(Nc1cnc2ccccc2c1)c1ccnn1CCc1ccncc1 | > 30% |
| O=C(Nc1ccc(Cl)cc1)c1nc2ccccc2n1CCc1ccncc1 | > 30% |
| O=C(Nc1ccc(Cl)cc1)c1ccnn1CCc1noc2ccccc12 | > 30% |
| O=C(Nc1ccc(C(F)(F)F)c(Cl)c1)c1nnnn1CCc1ccncc1 | > 30% |

---

Species on record: Homo sapiens
Assay: Inhibition of InR at 10 uM
Set-up: scale not given: the % may be the effect or the level left

| compoundStructure | Activity |
| --- | --- |
| CC(C)(C)c1ccc(NC(=O)c2nnnn2CCc2ccncc2)cc1 | > 30% |
| COc1ccc(NC(=O)c2ccnn2CCc2ccncc2)cc1OC | > 30% |
| O=C(Nc1ccc(Oc2ccccc2)cc1)c1ccnn1CCc1ccncc1 | > 30% |
| O=C(Nc1ccc(Cl)cc1)c1ccnn1CCc1cccnc1 | > 30% |
| CCc1ccc(NC(=O)c2ccnn2CCc2ccncc2)cc1 | > 30% |
| O=C(Nc1ccc(OC(F)(F)F)cc1)c1ccnn1CCc1ccncc1 | > 30% |

---

Target: Insulin-like growth factor 1 receptor (Homo sapiens) (UniProt P08069)
Sequence (P08069 31-736 limits assumed): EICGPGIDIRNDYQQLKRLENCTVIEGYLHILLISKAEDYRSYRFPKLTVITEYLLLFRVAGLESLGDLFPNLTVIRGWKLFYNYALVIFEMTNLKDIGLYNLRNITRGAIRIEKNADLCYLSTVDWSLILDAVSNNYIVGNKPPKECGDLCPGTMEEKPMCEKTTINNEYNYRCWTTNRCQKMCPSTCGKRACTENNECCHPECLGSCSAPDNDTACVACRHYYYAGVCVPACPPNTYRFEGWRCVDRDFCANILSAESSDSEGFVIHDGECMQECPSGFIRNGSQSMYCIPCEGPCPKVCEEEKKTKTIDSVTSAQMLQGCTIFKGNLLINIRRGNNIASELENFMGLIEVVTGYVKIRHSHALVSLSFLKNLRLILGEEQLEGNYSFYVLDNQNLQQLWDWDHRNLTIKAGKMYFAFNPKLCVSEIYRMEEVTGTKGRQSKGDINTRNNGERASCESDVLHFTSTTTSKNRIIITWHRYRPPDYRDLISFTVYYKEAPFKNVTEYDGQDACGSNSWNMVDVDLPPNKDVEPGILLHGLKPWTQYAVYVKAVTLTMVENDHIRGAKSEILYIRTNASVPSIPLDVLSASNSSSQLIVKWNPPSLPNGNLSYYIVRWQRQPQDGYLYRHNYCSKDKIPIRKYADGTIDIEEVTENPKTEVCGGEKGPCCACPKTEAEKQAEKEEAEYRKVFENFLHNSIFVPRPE
Sequence (P08069 741-1367 limits assumed): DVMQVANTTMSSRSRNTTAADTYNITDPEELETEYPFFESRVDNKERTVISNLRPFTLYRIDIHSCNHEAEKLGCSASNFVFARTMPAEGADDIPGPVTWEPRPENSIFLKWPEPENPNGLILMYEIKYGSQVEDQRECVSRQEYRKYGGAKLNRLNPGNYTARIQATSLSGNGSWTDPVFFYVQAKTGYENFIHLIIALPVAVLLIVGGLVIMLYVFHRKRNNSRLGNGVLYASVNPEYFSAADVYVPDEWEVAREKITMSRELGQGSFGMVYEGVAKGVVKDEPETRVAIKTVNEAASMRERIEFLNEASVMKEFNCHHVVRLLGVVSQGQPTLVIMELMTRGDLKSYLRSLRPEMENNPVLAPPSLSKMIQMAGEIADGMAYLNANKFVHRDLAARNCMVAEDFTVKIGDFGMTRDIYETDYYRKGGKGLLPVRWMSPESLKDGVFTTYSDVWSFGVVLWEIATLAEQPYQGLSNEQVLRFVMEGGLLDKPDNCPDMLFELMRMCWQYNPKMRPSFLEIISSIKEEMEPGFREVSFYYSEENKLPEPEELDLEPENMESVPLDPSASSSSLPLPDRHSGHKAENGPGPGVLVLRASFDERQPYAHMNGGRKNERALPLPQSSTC
Test: Inhibition of IGF1R at 10 uM
Design: scale not given: the % may be the effect or the level left
Measured Activity accompanies every entry in the list below.
testReadout: Activity

| compoundStructure | testReadout | measurement |
| --- | --- | --- |
| O=C(Nc1ccc(OC(F)(F)F)cc1)c1cc2ccccc2n1CCc1ccncc1 | Activity | > 30% |
| O=C(Nc1cnc2ccccc2c1)c1ccnn1CCc1ccncc1 | Activity | > 30% |
| O=C(Nc1ccc(Cl)cc1)c1cc2ccccc2n1CCc1ccncc1 | Activity | > 30% |

---

# reported IC50; entries follow
Target: Vascular endothelial growth factor receptor 2 (Homo sapiens)
Test: Inhibition of VEGFR2 assessed as inhibition of phosphorylation in human 293 cells by cell-based ELISA
Type: functional, HEK293

| compoundStructure | units | measurementQualifier | IC50 |
| --- | --- | --- | --- |
| O=C(Nc1cccc(OC(F)(F)F)c1)c1ccnn1CCc1ccncc1 | nM | = | 280 |
| O=C(Nc1ccc(C(F)(F)F)c(Cl)c1)c1nc2ccccc2n1CCc1ccncc1 | nM | > | 10000 |
| O=C(Nc1ccc(Cl)cc1)c1ccnn1CCc1ccncc1 | nM | = | 90 |
| O=C(Nc1ccc(C(F)(F)F)cc1)c1nnnn1CCc1ccncc1 | nM | = | 2960 |
| Cc1nn(CCc2ccncc2)c(C(=O)Nc2ccc(Cl)cc2)c1C | nM | > | 10000 |
| O=C(Nc1ccc(Cl)cc1)c1ccnn1CCc1cnoc1 | nM | > | 10000 |

---

Target: Vascular endothelial growth factor receptor 2 (Homo sapiens, UniProt P35968)
Sequence (P35968 whole entry): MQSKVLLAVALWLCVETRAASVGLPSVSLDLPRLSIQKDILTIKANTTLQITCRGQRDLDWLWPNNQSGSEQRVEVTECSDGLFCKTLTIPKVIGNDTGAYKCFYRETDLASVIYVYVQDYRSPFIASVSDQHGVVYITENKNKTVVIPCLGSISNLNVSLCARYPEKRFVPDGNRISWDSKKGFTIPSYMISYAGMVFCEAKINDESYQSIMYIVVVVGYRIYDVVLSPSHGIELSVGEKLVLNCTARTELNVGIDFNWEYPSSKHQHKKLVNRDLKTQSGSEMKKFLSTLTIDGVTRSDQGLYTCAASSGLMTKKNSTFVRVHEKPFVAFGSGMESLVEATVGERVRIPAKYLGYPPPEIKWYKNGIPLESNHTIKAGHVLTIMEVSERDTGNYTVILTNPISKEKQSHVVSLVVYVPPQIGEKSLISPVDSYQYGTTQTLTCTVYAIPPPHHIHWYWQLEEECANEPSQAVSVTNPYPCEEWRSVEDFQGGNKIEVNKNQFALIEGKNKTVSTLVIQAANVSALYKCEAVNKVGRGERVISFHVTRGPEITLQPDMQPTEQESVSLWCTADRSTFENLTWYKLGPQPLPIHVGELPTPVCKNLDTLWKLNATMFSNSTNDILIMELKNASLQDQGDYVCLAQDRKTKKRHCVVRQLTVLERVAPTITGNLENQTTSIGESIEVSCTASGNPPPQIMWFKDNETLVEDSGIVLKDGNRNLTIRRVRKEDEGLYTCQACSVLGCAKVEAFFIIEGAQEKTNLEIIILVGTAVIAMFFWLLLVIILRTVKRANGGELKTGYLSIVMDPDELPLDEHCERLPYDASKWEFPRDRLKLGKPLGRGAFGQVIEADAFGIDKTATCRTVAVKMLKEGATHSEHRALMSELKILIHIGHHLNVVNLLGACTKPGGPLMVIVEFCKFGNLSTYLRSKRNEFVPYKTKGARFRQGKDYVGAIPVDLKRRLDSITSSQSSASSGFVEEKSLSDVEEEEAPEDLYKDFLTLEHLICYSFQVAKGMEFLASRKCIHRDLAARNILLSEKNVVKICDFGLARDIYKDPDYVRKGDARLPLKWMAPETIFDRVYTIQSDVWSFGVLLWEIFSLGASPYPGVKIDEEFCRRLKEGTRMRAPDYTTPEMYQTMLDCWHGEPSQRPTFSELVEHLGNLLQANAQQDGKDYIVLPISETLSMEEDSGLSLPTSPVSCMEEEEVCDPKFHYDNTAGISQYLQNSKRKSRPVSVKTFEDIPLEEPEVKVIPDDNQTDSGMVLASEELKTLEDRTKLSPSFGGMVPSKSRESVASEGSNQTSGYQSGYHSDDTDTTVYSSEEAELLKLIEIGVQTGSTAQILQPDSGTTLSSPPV
Assay: Displacement of [32P]ATP from human VEGFR2 after 45 mins
pKi: −log10 of the molar value.

| compoundStructure | experimentalSystem | pKi |
| --- | --- | --- |
| CC(C)(C)c1ccc(NC(=O)c2ccnn2CCc2ccncc2)cc1 | Vascular endothelial growth factor receptor 2 (Homo sapiens, UniProt P35968) | 6.85 |
| O=C(Nc1cccc(OC(F)(F)Cl)c1)c1ccnn1CCc1ccncc1 | Vascular endothelial growth factor receptor 2 (Homo sapiens, UniProt P35968) | 7.05 |
| O=C(Nc1ccc(OC(F)(F)F)cc1)c1ccnn1CCc1ccncc1 | Vascular endothelial growth factor receptor 2 (Homo sapiens, UniProt P35968) | 7.10 |
| O=C(Nc1ccc(C(F)(F)F)c(Cl)c1)c1ccnn1CCc1ccncc1 | Vascular endothelial growth factor receptor 2 (Homo sapiens, UniProt P35968) | 6.80 |
| O=C(Nc1ccc(Cl)cc1)c1ccnn1CCc1ccncc1 | Vascular endothelial growth factor receptor 2 (Homo sapiens, UniProt P35968) | 7.05 |

---

Species: Homo sapiens
Assay: Inhibition of InR at 10 uM
Parameters: scale not given: the % may be the effect or the level left

| compoundStructure | Activity |
| --- | --- |
| O=C(Nc1ccc2cn[nH]c2c1)c1ccnn1CCc1ccncc1 | > 30% |
| Cc1cc(C(=O)Nc2ccc(Cl)cc2)n(CCc2ccncc2)n1 | > 30% |
| O=C(Nc1ccc(Cl)cc1)c1nnnn1CCc1ccncc1 | > 30% |
| CC(C)c1ccc(NC(=O)c2ccnn2CCc2ccncc2)cc1 | > 30% |
| O=C(Nc1ccc(OCc2ccccc2)cc1)c1ccnn1CCc1ccncc1 | > 30% |
| O=C(Nc1ccc(C(F)(F)F)c(Cl)c1)c1ccnn1CCc1ccncc1 | > 30% |
| O=C(Nc1cnc2ccccc2c1)c1ccnn1CCc1ccncc1 | > 30% |
| O=C(Nc1ccc(C(F)(F)F)cc1)c1nnnn1CCc1ccncc1 | > 30% |
| O=C(Nc1ccc(Cl)c(C(F)(F)F)c1)c1ccnn1CCc1ccncc1 | > 30% |
| O=C(Nc1ccc(OC(F)(F)F)cc1)c1nnnn1CCc1ccncc1 | > 30% |
| O=C(Nc1cccc(OC(F)(F)Cl)c1)c1ccnn1CCc1ccncc1 | > 30% |
| O=C(Nc1ccc(Cl)cc1)c1ccnn1CCc1ccncc1 | > 30% |
| O=C(Nc1ccc(C(F)(F)F)cc1)c1ccnn1CCc1ccncc1 | > 30% |
| O=C(Nc1ccc(Cl)c(Cl)c1)c1ccnn1CCc1ccncc1 | > 30% |
| O=C(Nc1ccc(OC(F)(F)F)cc1)c1nccn1CCc1ccncc1 | > 30% |
| O=C(Nc1ccc(C(F)(F)F)c(Cl)c1)c1nccn1CCc1ccncc1 | > 30% |

---

Molecular target: Vascular endothelial growth factor receptor 2 (Homo sapiens, UniProt P35968)
Assay: Inhibition of VEGFR2 assessed as inhibition of phosphorylation in presence of 2 uM ATP by HTRF assay
Format: functional
pIC50: −log10 of the molar value.
pIC50 values by entry

| compoundStructure | measurementQualifier | pIC50 |
| --- | --- | --- |
| O=C(Nc1ccc(C(F)(F)F)c(Cl)c1)c1nnnn1CCc1ccncc1 | < | 5.00 |
| O=C(Nc1ccc(Cl)cc1)c1nnnn1CCc1ccncc1 | = | 6.19 |
| O=C(Nc1cccc(OC(F)(F)F)c1)c1ccnn1CCc1ccncc1 | = | 6.43 |
| CC(C)(C)c1ccc(NC(=O)c2ccnn2CCc2ccncc2)cc1 | = | 7.38 |
| O=C(Nc1ccc(OC(F)(F)F)cc1)c1nc2ccccc2n1CCc1ccncc1 | < | 5.00 |
| Cc1cc(C(=O)Nc2ccc(Cl)cc2)n(CCc2ccncc2)n1 | = | 6.11 |
| O=C(Nc1ccc(OC(F)(F)F)cc1)c1nnnn1CCc1ccncc1 | = | 5.58 |
| Cc1nn(CCc2ccncc2)c(C(=O)Nc2ccc(Cl)cc2)c1C | < | 5.00 |
| O=C(Nc1ccc(Cl)cc1)c1nc2ccccc2n1CCc1ccncc1 | < | 5.00 |
| O=C(Nc1ccc(OC(F)(F)F)cc1)c1cc2ccccc2n1CCc1ccncc1 | < | 5.00 |
| CCc1ccc(NC(=O)c2ccnn2CCc2ccncc2)cc1 | = | 6.92 |
| O=C(Nc1ccc(-c2ccccc2)cc1)c1ccnn1CCc1ccncc1 | = | 6.02 |
| O=C(Nc1ccc2[nH]ncc2c1)c1ccnn1CCc1ccncc1 | = | 5.29 |
| Cc1nn(CCc2ccncc2)c(C(=O)Nc2ccc(OC(F)(F)F)cc2)c1C | < | 5.00 |
| O=C(Nc1ccc(Cl)cc1)c1ccnn1CCc1ccccn1 | < | 5.00 |
| CC(C)c1ccc(NC(=O)c2ccnn2CCc2ccncc2)cc1 | = | 7.13 |
| O=C(Nc1ccc(Cl)cc1)c1ccnn1CCc1c[nH]cn1 | < | 5.00 |
| O=C(Nc1ccc(Cl)cc1)c1nccn1CCc1ccncc1 | = | 6.42 |
| CC(C)(C)c1ccc(NC(=O)c2nnnn2CCc2ccncc2)cc1 | < | 5.00 |
| O=C(Nc1cnc2ccccc2c1)c1ccnn1CCc1ccncc1 | = | 6.74 |
| O=C(Nc1ccc(C(F)(F)F)c(Cl)c1)c1nc2ccccc2n1CCc1ccncc1 | < | 5.00 |
| COc1ccc(NC(=O)c2ccnn2CCc2ccncc2)cc1OC | = | 6.36 |
| O=C(Nc1ccc(Oc2ccccc2)cc1)c1ccnn1CCc1ccncc1 | = | 5.49 |
| O=C(Nc1ccc(Cl)cc1)c1ccnn1CCc1cnoc1 | < | 5.00 |
| O=C(Nc1ccc2cn[nH]c2c1)c1ccnn1CCc1ccncc1 | < | 5.00 |
| O=C(Nc1ccc(Cl)cc1)c1cc2ccccc2n1CCc1ccncc1 | < | 5.00 |
| CC(C)(C)c1ccc(NC(=O)c2nccn2CCc2ccncc2)cc1 | = | 6.03 |
| CN(C(=O)c1ccnn1CCc1ccncc1)c1ccc(Cl)cc1 | < | 5.00 |
| O=C(Nc1ccc(OC(F)(F)F)cc1)c1nccn1CCc1ccncc1 | = | 6.10 |
| O=C(Nc1ccc(Cl)c(C(F)(F)F)c1)c1ccnn1CCc1ccncc1 | = | 6.12 |
| O=C(Nc1ccc(C(F)(F)F)c(Cl)c1)c1ccnn1CCc1ccncc1 | = | 6.74 |
| O=C(Nc1ccc(Cl)c(Cl)c1)c1ccnn1CCc1ccncc1 | = | 6.59 |
| O=C(Nc1ccc(Cl)cc1)c1ccnn1CCc1noc2ccccc12 | < | 5.00 |
